Value source: patent US20240308998A1

- system: BRD4 BD2 (Homo sapiens, UniProt O60885)
- Construct: HEK293 cells were transfected using NanoLuc-BRD4-BD1 or NanoLuc-BRD4-BD2 fusion vectors; host or cells: HEK293
- test_summary: NanoBRET bromodomain assay, BRD4 BD2
- Format: cell-based
- condition_label: IC50 BD1/IC50 BD2
measurement_type: Fold selectivity BRD4 BD1/BD2

Some entries whose results are on file:
>>> measurement("Cc1cc(-c2cc3c(-c4cc(=O)n(C)cc4C4CCCC4)cn(C)c(=O)c3[nH]2)n(C)n1")
"x (Fold >2 and ≤50)"
>>> measurement("Cc1cccc(C)c1Oc1cn(C)c(=O)cc1-c1cn(C)c(=O)c2[nH]c(-c3cnn(C(C)C)c3)cc12")
"xx (Fold >50 and ≤200)"
>>> measurement("C#Cc1cn(C)c(=O)cc1-c1cn(C)c(=O)c2[nH]c(-c3cnn(C(C)C)c3)cc12")
"x (Fold >2 and ≤50)"
>>> measurement("CC#Cc1cn(C)c(=O)cc1-c1cn(C)c(=O)c2[nH]c(-c3cnn(C(C)C)c3)cc12")
"x (Fold >2 and ≤50)"

Under BRD4 BD2 (Homo sapiens, UniProt O60885): report Fold selectivity BRD4 BD1/BD2 of Cc1cc(-c2cc3c(-c4cc(=O)n(C)cc4C4CCCC4)cn(C)c(=O)c3[nH]2)cc(C)n1 .
xx (Fold >50 and ≤200)

====

Parameter: Mouse Plasma Stability % remaining at 120 minutes. Scope: all listed entries.
- test_summary: Mouse plasma stability
- Format: in vitro ADME
- condition_label: 10 μM in mouse plasma, 37° C.
Respond numerically; units are % and should not be typed.

>>> measurement("Cc1cc(-c2cc3c(-c4cc(=O)n(C)cc4Oc4c(C)cccc4C)cn(C)c(=O)c3[nH]2)n(C)n1")
84
>>> measurement("Cc1cccc(C)c1Oc1cn(C)c(=O)cc1-c1cn(C)c(=O)c2[nH]c(-c3ncc[nH]3)cc12")
100

Could you now look at the following molecule, please?
State its Mouse Plasma Stability % remaining at 120 minutes for this molecule: Cc1cccc(C)c1Oc1cn(C)c(=O)cc1-c1cn(C)c(=O)c2[nH]c(-c3cnn(C(C)C)c3)cc12
98

====

- system: BRD4 BD2 (Homo sapiens)
- Construct: HEK293 cells were transfected using NanoLuc-BRD4-BD1 or NanoLuc-BRD4-BD2 fusion vectors; host or cells: HEK293
- test_summary: NanoBRET bromodomain assay, BRD4 BD2
- Format: cell-based
- condition_label: IC50 BD1/IC50 BD2
measurement_type: Fold selectivity BRD4 BD1/BD2

Some entries whose results are on file:
>>> measurement("Cc1cccc(C)c1Oc1cn(C)c(=O)cc1-c1cn(C)c(=O)c2[nH]c(-c3ccc(C(N)=O)cc3)cc12 [Example 29]")
"xxx (Fold >200)"
>>> measurement("Cc1cccc(C)c1Oc1cn(C)c(=O)cc1-c1cn(C)c(=O)c2[nH]c(-c3cn(C(C)C)nc3C)cc12 [Example 6]")
"xxx (Fold >200)"
>>> measurement("Cc1cccc(C)c1Oc1cn(C)c(=O)cc1-c1cn(C)c(=O)c2[nH]c(-c3cnn[nH]3)cc12 [Example 30]")
"xx (Fold >50 and ≤200)"
>>> measurement("Cc1cccc(C)c1Oc1cn(C)c(=O)cc1-c1cn(C)c(=O)c2[nH]c(-c3cccc(F)c3F)cc12 [Example 50]")
"xxx (Fold >200)"
>>> measurement("Cn1cc(-c2ccccc2)c(-c2cn(C)c(=O)c3[nH]c(-c4ccccc4)cc23)cc1=O [Example 63]")
"xxx (Fold >200)"
>>> measurement("Cc1cccc(C)c1Oc1cn(C)c(=O)cc1-c1cn(C)c(=O)c2[nH]c(-c3ncccn3)cc12 [Example 39]")
"xx (Fold >50 and ≤200)"

Could you now look at the following compound, please?
State its Fold selectivity BRD4 BD1/BD2 for this compound: Cc1cccc(C)c1Oc1cn(C)c(=O)cc1-c1cn(C)c(=O)c2[nH]c(-c3cn(C)nc3C)cc12 [Example 12]
xx (Fold >50 and ≤200)
